The reported numbers originate from patent US10526347B2.

# Tested on: Wnt activity (SW480 colon carcinoma cells stably expressing the Sp5-Luc reporter gene)
# ASSAY NAME: Sp5-Luc reporter gene screening assay for Wnt activity
# Assay type: cell-based
# MEASUREMENT PARAMETERS: Homo sapiens
METRIC NAME: IC50 (nM)

Look over these answered cases.
{"columns": ["SMILES REPR", "IC50 / nM"],
 "data": [
  ["Cc1ccc(-c2ccnc3[nH]c(-c4n[nH]c5ncc(-c6cncc(N)c6)cc45)nc23)s1", 2.6],
  ["CC(C)CC(=O)Nc1cncc(-c2cnc3[nH]nc(-c4nc5c(-c6cc(F)cc(OCCN(C)C)c6)ccnc5[nH]4)c3c2)c1", 1130],
  ["Fc1ccc(-c2ccnc3[nH]c(-c4n[nH]c5ncc(-c6cncnc6)cc45)nc23)cc1", 377],
  ["CCCC(=O)Nc1cncc(-c2cnc3[nH]nc(-c4nc5c(-c6ccsc6)ccnc5[nH]4)c3c2)c1", 2.7],
  ["CC(C)Nc1cncc(-c2cnc3[nH]nc(-c4nc5c(-c6cccnc6)ccnc5[nH]4)c3c2)c1", 45.4],
  ["O=C(Cc1ccccc1)Nc1cncc(-c2cnc3[nH]nc(-c4nc5cccnc5[nH]4)c3c2)c1", 751],
  ["Cc1ccc(-c2ccnc3[nH]c(-c4n[nH]c5ncc(-c6cncc(NC(=O)C7CCCC7)c6)cc45)nc23)s1", 8],
  ["O=C(Nc1cncc(-c2cnc3[nH]nc(-c4nc5c(N6CCCCC6)ccnc5[nH]4)c3c2)c1)C1CC1", 247]
]}

I = Fc1cccc(-c2ccnc3[nH]c(-c4n[nH]c5ncc(-c6cncc(CN7CCC(F)(F)C7)c6)cc45)nc23)c1
II = Cc1ccncc1-c1cnc2[nH]nc(-c3nc4c(-c5ccsc5)ccnc4[nH]3)c2c1
III = CC(C)CC(=O)Nc1cncc(-c2cnc3[nH]nc(-c4nc5c(-c6cc(F)cc(OCCN7CCCC7)c6)ccnc5[nH]4)c3c2)c1
IV = Cc1ncc(-c2cnc3[nH]nc(-c4nc5c(-c6cccc(F)c6)ccnc5[nH]4)c3c2)n1C
V = CC(C)(C)CC(=O)Nc1cncc(-c2cnc3[nH]nc(-c4nc5c(-c6ccccc6F)ccnc5[nH]4)c3c2)c1
**Query** Ranking field: IC50; order: falling. Your answer should be the labels, listed in the requested order.
**Result** III, V, IV, I, II

P = CC(C)(C)C(=O)Nc1cncc(-c2cnc3[nH]nc(-c4nc5c(-c6ccc(F)cc6)ccnc5[nH]4)c3c2)c1
Q = Cc1cn(-c2ccnc3[nH]c(-c4n[nH]c5ncc(-c6cncc(CN7CCCC7)c6)cc45)nc23)cn1
**Query** Higher IC50 between P and Q ? Field: selected label. Fill in the label of the entry you choose.
**Result** Q
